Documented IC50 across a set of compounds
target: human TRPV3 (Homo sapiens, UniProt Q8NET8); test: Calcium flux assay (FLIPR TETRA), recombinant HEK293 cells expressing TRPV3, 2-APB response; conditions: 2-APB at its EC80
Sequence (Q8NET8 whole entry): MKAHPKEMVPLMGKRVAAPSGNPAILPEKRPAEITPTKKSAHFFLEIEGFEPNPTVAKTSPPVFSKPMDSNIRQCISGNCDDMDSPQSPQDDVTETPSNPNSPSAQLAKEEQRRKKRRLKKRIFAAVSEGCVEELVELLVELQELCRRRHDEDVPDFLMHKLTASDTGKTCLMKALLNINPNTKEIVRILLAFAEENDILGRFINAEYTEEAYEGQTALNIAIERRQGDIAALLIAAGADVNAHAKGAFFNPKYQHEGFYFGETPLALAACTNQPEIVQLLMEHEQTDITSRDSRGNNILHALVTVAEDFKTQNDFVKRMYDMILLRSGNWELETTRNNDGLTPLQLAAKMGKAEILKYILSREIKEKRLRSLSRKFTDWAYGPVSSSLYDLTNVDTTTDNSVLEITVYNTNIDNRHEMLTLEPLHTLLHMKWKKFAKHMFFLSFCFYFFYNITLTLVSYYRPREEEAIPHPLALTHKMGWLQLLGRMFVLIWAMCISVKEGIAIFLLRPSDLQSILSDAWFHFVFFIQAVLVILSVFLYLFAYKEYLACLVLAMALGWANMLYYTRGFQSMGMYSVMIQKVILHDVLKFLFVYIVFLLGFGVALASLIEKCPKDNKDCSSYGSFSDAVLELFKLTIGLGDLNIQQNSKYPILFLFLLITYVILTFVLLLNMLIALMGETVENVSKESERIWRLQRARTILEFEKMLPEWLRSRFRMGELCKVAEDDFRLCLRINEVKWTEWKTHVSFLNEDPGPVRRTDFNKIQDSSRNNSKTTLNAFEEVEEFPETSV
Measurement Name: IC50

compound="COc1ncnc(OC)c1C(=O)Nc1nc(C(F)(F)F)c(-c2cnc(C#N)c(OCC3COC3)c2)s1 [Example 205]" system="human TRPV3 (Homo sapiens, UniProt Q8NET8)" result="100 to 500 nM"
compound="COc1ncnc(OC)c1C(=O)Nc1nc(C(F)(F)F)c(-c2cnc(N3CCOCC3)c(C#N)c2)s1 [Example 204]" system="human TRPV3 (Homo sapiens, UniProt Q8NET8)" result="< 50 nM"
compound="COc1ncnc(OC)c1C(=O)Nc1nc(C(F)(F)F)c(C2=COCC2)s1 [Example 145]" system="human TRPV3 (Homo sapiens, UniProt Q8NET8)" result="< 50 nM"
compound="COc1ncnc(OC)c1C(=O)Nc1nc(C(F)(F)F)c(CNCC(C)C)s1 [Example 52]" system="human TRPV3 (Homo sapiens, UniProt Q8NET8)" result="50 to 100 nM"
compound="COc1ncnc(OC)c1C(=O)Nc1nc(-c2ccc(C(F)(F)F)cn2)c(C(C)=O)s1 [Example 87]" system="human TRPV3 (Homo sapiens, UniProt Q8NET8)" result="50 to 100 nM"
compound="COC/C=C/c1sc(NC(=O)c2c(OC)ncnc2OC)nc1C(F)(F)F [Example 18]" system="human TRPV3 (Homo sapiens, UniProt Q8NET8)" result="< 50 nM"
compound="COc1ncnc(OC)c1C(=O)Nc1nc(C(F)(F)F)c(-c2cnn(CC3CC3)c2)s1 [Example 175]" system="human TRPV3 (Homo sapiens, UniProt Q8NET8)" result="< 50 nM"
compound="CCc1sc(NC(=O)c2c(OC)ncnc2OC)nc1C(F)(F)F [Example 6]" system="human TRPV3 (Homo sapiens, UniProt Q8NET8)" result="< 50 nM"
compound="COc1ncnc(OC)c1C(=O)Nc1nc(C(F)(F)F)c(C2=CCCO2)s1 [Example 143]" system="human TRPV3 (Homo sapiens, UniProt Q8NET8)" result="< 50 nM"
compound="COc1ncnc(OC)c1C(=O)Nc1nc(C(F)(F)F)c(C2=CCN(S(C)(=O)=O)CC2)s1 [Example 165]" system="human TRPV3 (Homo sapiens, UniProt Q8NET8)" result="500 to 1000 nM"
compound="COc1ncnc(OC)c1C(=O)Nc1nc(C(F)(F)F)c(/C(C)=N/O)s1 [Example 134]" system="human TRPV3 (Homo sapiens, UniProt Q8NET8)" result="100 to 500 nM"
compound="COc1ncnc(OC)c1C(=O)Nc1nc(C(F)(F)F)c(C#C[Si](C)(C)C)s1 [Example 10]" system="human TRPV3 (Homo sapiens, UniProt Q8NET8)" result="< 50 nM"
compound="CCc1sc(NC(=O)c2c(OC)ncnc2OC)nc1-c1ccccc1 [Example 26]" system="human TRPV3 (Homo sapiens, UniProt Q8NET8)" result="50 to 100 nM"
compound="COc1ncnc(OC)c1C(=O)Nc1nc(-c2ccc(C(F)(F)F)cn2)c(C2(C)OCCO2)s1 [Example 90]" system="human TRPV3 (Homo sapiens, UniProt Q8NET8)" result="50 to 100 nM"
compound="COc1ncnc(OC)c1C(=O)Nc1nc(C(F)(F)F)c(N2CCOCC2)s1 [Example 32]" system="human TRPV3 (Homo sapiens, UniProt Q8NET8)" result="100 to 500 nM"
compound="CCCc1sc(NC(=O)c2c(OC)ncnc2OC)nc1C(F)(F)F [Example 34]" system="human TRPV3 (Homo sapiens, UniProt Q8NET8)" result="< 50 nM"
compound="COc1ncnc(OC)c1C(=O)Nc1nc(-c2ccc(C(F)(F)F)cn2)c(C(C)(C)O)s1 [Example 85]" system="human TRPV3 (Homo sapiens, UniProt Q8NET8)" result="50 to 100 nM"
compound="COc1ncnc(OC)c1C(=O)Nc1nc(-c2ccc(C(F)(F)F)cn2)c(C)s1 [Example 95]" system="human TRPV3 (Homo sapiens, UniProt Q8NET8)" result="< 50 nM"
compound="COc1ncnc(OC)c1C(=O)Nc1nc(C(F)(F)F)c(C2CC2)s1 [Example 37]" system="human TRPV3 (Homo sapiens, UniProt Q8NET8)" result="< 50 nM"
compound="COc1ncnc(OC)c1C(=O)Nc1nc(C(F)(F)F)c(C2=CCOCC2)s1 [Example 38]" system="human TRPV3 (Homo sapiens, UniProt Q8NET8)" result="< 50 nM"
compound="COc1ncnc(OC)c1C(=O)Nc1nc(C(F)(F)F)c(-c2cnccn2)s1 [Example 28]" system="human TRPV3 (Homo sapiens, UniProt Q8NET8)" result="500 to 1000 nM"
compound="COc1ncnc(OC)c1C(=O)Nc1nc(C2CCCC2)cs1 [Example 98]" system="human TRPV3 (Homo sapiens, UniProt Q8NET8)" result="100 to 500 nM"
compound="COc1ncnc(OC)c1C(=O)Nc1nc(C)c(C)s1 [Example 9]" system="human TRPV3 (Homo sapiens, UniProt Q8NET8)" result="> 1000 nM"
compound="COc1ncnc(OC)c1C(=O)Nc1nc(C(F)(F)F)c(-c2cnc(N3CCOCC3)cn2)s1 [Example 29]" system="human TRPV3 (Homo sapiens, UniProt Q8NET8)" result="500 to 1000 nM"
compound="COc1ncnc(OC)c1C(=O)Nc1nc(C(F)(F)F)c(-c2cn(C)nc2C(F)(F)F)s1 [Example 186]" system="human TRPV3 (Homo sapiens, UniProt Q8NET8)" result="< 50 nM"
compound="COc1ncnc(OC)c1C(=O)Nc1nc(C(F)(F)F)c(/C(=N/O)c2ccc(F)cn2)s1 [Example 132]" system="human TRPV3 (Homo sapiens, UniProt Q8NET8)" result="< 50 nM"
compound="COc1ncnc(OC)c1C(=O)Nc1nc(C(F)(F)F)c(-c2ccnn2C)s1 [Example 176]" system="human TRPV3 (Homo sapiens, UniProt Q8NET8)" result="100 to 500 nM"
compound="COc1ncnc(OC)c1C(=O)Nc1nc(-c2ccc(C(F)(F)F)cn2)c(C=O)s1 [Example 76]" system="human TRPV3 (Homo sapiens, UniProt Q8NET8)" result="100 to 500 nM"
compound="COc1ncnc(OC)c1C(=O)Nc1nc(C(F)(F)F)c(-c2ccnc(CC#N)c2)s1 [Example 152]" system="human TRPV3 (Homo sapiens, UniProt Q8NET8)" result="100 to 500 nM"
compound="COc1ncnc(OC)c1C(=O)Nc1nc(C(F)(F)F)c(-c2ccnn2C(C)C)s1 [Example 180]" system="human TRPV3 (Homo sapiens, UniProt Q8NET8)" result="< 50 nM"
compound="COc1ncnc(OC)c1C(=O)Nc1nc(-c2ccc(C(F)(F)F)cn2)c(CCCO)s1 [Example 96]" system="human TRPV3 (Homo sapiens, UniProt Q8NET8)" result="100 to 500 nM"
compound="COc1ncnc(SC)c1C(=O)Nc1nc(C(F)(F)F)c(-c2ccccc2C#N)s1 [Example 159]" system="human TRPV3 (Homo sapiens, UniProt Q8NET8)" result="< 50 nM"
compound="COc1ncnc(OC)c1C(=O)Nc1nc(C(F)(F)F)c(Sc2ccccc2)s1 [Example 115]" system="human TRPV3 (Homo sapiens, UniProt Q8NET8)" result="50 to 100 nM"
compound="COc1ncnc(OC)c1C(=O)Nc1nc(C(F)(F)F)c(-c2cccc(F)n2)s1 [Example 153]" system="human TRPV3 (Homo sapiens, UniProt Q8NET8)" result="< 50 nM"
